Provenance of the data: patent US20240182536A1

# tested_system: T1, IL-18 receptors on HEK-Blue IL-18 reporter cells (UniProt Q13478 19-541; O95256 20-599, limits assumed); further: unit not given here
# T1 sequence (looked up) 1: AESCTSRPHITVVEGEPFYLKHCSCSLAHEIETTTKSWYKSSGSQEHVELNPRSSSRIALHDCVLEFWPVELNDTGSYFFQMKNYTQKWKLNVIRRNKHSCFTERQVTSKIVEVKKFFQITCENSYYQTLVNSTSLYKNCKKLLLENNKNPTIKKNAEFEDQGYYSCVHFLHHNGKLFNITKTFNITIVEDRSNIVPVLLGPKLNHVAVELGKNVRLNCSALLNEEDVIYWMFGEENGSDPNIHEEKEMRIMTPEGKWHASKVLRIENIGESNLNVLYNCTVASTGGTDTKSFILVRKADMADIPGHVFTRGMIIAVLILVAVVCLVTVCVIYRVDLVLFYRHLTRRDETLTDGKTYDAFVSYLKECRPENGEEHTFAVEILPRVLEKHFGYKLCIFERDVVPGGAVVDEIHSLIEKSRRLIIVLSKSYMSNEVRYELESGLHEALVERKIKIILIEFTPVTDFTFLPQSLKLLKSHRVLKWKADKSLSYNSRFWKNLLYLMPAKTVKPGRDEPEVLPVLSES
# T1 sequence (looked up) 2: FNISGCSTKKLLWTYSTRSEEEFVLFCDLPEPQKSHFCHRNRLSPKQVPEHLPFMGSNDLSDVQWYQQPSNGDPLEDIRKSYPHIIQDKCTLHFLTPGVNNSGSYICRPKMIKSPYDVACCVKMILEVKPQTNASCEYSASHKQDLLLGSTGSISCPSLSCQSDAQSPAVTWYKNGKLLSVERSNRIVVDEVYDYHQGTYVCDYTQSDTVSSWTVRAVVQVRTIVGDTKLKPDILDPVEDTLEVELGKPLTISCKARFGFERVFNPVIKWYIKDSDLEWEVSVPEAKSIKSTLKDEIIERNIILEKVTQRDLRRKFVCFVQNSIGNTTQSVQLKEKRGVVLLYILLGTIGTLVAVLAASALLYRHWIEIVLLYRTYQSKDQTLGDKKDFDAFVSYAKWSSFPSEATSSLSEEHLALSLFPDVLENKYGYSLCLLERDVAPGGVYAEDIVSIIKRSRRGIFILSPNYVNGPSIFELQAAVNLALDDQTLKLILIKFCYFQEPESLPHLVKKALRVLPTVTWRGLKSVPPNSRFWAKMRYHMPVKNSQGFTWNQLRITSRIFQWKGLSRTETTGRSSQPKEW
# procedure_details: cell-based or functional assay
Tick criterion met if Activity, No BP, DF-100000 is 1 or greater. Tick criterion not met if Activity, No BP, DF-100000 is less than 1.

binder	qualitative_label
IL-18 variant G3Q, E6H, K53T, D54S, S55Y, N91Y, R104K (ligand) YFQKLHSKLSVIRNLNDQVLFIDQGNRPLFEDMTDSDMRDNAPRTIFIISMYTSYQPRGMAVTISVKSEKISTLSSENKIISFKEMNPPDYIKDTKSDIIFFQKSVPGHDNKMQFESSSYEGYFLASEKERDLFKLILKKEDELGDRSIMFTVQNED	criterion met
IL-18 variant G3P, E6V, K53A, D54W, S55P, T63S, N91L, R104K (ligand) YFPKLVSKLSVIRNLNDQVLFIDQGNRPLFEDMTDSDMRDNAPRTIFIISMYAWPQPRGMAVSISVKSEKISTLSSENKIISFKEMNPPDLIKDTKSDIIFFQKSVPGHDNKMQFESSSYEGYFLASEKERDLFKLILKKEDELGDRSIMFTVQNED	criterion met
IL-18 variant K53T, D54H, S55V, T63A, N91K (ligand) YFGKLESKLSVIRNLNDQVLFIDQGNRPLFEDMTDSDMRDNAPRTIFIISMYTHVQPRGMAVAISVKSEKISTLSSENKIISFKEMNPPDKIKDTKSDIIFFQRSVPGHDNKMQFESSSYEGYFLASEKERDLFKLILKKEDELGDRSIMFTVQNED	criterion not met

-- ask Please indicate if the recorded Activity, No BP, DF-100000 for IL-18 variant G3P, E6K, D54Y, S55P, T63S, N91S, R104Q (ligand) YFPKLKSKLSVIRNLNDQVLFIDQGNRPLFEDMTDSDMRDNAPRTIFIISMYKYPQPRGMAVSISVKSEKISTLSSENKIISFKEMNPPDSIKDTKSDIIFFQQSVPGHDNKMQFESSSYEGYFLASEKERDLFKLILKKEDELGDRSIMFTVQNED meets or exceeds 1.
-- reply criterion met

-- ask Please indicate if the recorded Activity, No BP, DF-100000 for IL-18 variant E6T, D54P, S55K, R104S (ligand) YFGKLTSKLSVIRNLNDQVLFIDQGNRPLFEDMTDSDMRDNAPRTIFIISMYKPKQPRGMAVTISVKSEKISTLSSENKIISFKEMNPPDNIKDTKSDIIFFQSSVPGHDNKMQFESSSYEGYFLASEKERDLFKLILKKEDELGDRSIMFTVQNED meets or exceeds 1.
-- reply criterion not met

-- ask Please indicate if the recorded Activity, No BP, DF-100000 for IL-18 variant G3L, E6Q, T63H, N91M, R104H (ligand) YFLKLQSKLSVIRNLNDQVLFIDQGNRPLFEDMTDSDMRDNAPRTIFIISMYKDSQPRGMAVHISVKSEKISTLSSENKIISFKEMNPPDMIKDTKSDIIFFQHSVPGHDNKMQFESSSYEGYFLASEKERDLFKLILKKEDELGDRSIMFTVQNED meets or exceeds 1.
-- reply criterion not met
